The values you see were collected from patent US5559232A.

target: human thrombin (Homo sapiens); assay: inhibition of the amidolytic activity of thrombin (chromogenic substrate S-2238); assay type: biochemical; conditions: human thrombin 0.5 nM, substrate S-2238, pH 7.8, room temperature
Each entry falls into one class according to its Ki; the ranges are low value = under 0.002 µM, medium value = from 0.002 µM up to 0.1 µM, high value = 0.1 µM and over

molecule	measured-on	category-label
CCCCN(CCC(=O)OCC)C(=O)[C@H](CC(=O)NC[C@@H]1CCCN(C(=N)N)C1)NC(=O)NCc1ccco1 [Example 10]	human thrombin (Homo sapiens)	high value
CCCCS(=O)(=O)N1CCN(CC(=O)O)C(=O)C1CC(=O)NC[C@@H]1CCCN(C(=N)N)C1 (stereo partly shown) [Example 17]	human thrombin (Homo sapiens)	high value
CC(C)(C)OC(=O)N[C@@H](CC(=O)NC[C@@H]1CCCN(C(=N)N)C1)C(=O)N(CCNC(=O)c1cnccn1)C1CC1 [Example 19]	human thrombin (Homo sapiens)	medium value
N=C(N)N1CCC[C@@H](CNC(=O)C[C@H](NC(=O)Cc2ccccc2)C(=O)N(CC(=O)O)C2CC2)C1 [Example 14e]	human thrombin (Homo sapiens)	medium value
N=C(N)N1CCC[C@@H](CNC(=O)C[C@H]2C(=O)N(C3CCCC3)CC(=O)N2S(=O)(=O)c2ccc3ccccc3c2)C1 [Example 16]	human thrombin (Homo sapiens)	high value
NC(=NO)N1CCC[C@@H](CNC(=O)C[C@H](NS(=O)(=O)c2ccc3ccccc3c2)C(=O)N(CCNC(=O)c2cnccn2)C2CC2)C1 [Example 22]	human thrombin (Homo sapiens)	low value
N=C(N)N1CCC[C@@H](CNC(=O)C[C@H](NC(=O)OCc2ccccc2)C(=O)N(CCC(=O)O)C2CC2)C1 [Example 4a]	human thrombin (Homo sapiens)	medium value
N=C(N)N1CCOC(CNC(=O)C[C@H](NC(=O)OCc2ccccc2)C(=O)N(CCC(=O)O)C2CC2)C1 (stereo partly shown) [Example 6c]	human thrombin (Homo sapiens)	high value
CCCCN(CCC(=O)O)C(=O)[C@H](CC(=O)NC[C@@H]1CCCN(C(=N)N)C1)NC(=O)OCc1ccccc1 [Example 4c]	human thrombin (Homo sapiens)	high value
N=C(N)N1CCC[C@@H](CNC(=O)C[C@H](NC(=O)CCc2c[nH]c3ccccc23)C(=O)N(CCNC(=O)c2cnccn2)C2CC2)C1 [Example 21a]	human thrombin (Homo sapiens)	medium value
N=C(N)N1CCC[C@@H](CNC(=O)C[C@H](NS(=O)(=O)N2CCOCC2)C(=O)N(CCNC(=O)c2cnccn2)C2CC2)C1 [Example 24]	human thrombin (Homo sapiens)	low value
N=C(N)N1CCC[C@@H](CNC(=O)C[C@H](NS(=O)(=O)N2CCOCC2)C(=O)N(CCNC(=O)c2ccc(=O)[nH]n2)C2CC2)C1 [Example 25]	human thrombin (Homo sapiens)	low value
N=C(N)N1CCC[C@@H](CNC(=O)C[C@H]2C(=O)N(C3CC3)CC(=O)N2S(=O)(=O)c2ccc3ccccc3c2)C1 [Example 15]	human thrombin (Homo sapiens)	low value
